# ASSAY TARGET: Inosine-5'-monophosphate dehydrogenase 2 (Homo sapiens)
# TEST DESCRIPTION: Inhibition of human recombinant type II Inosine Monophosphate Dehydrogenase at 100 uM
pIC50: −log10 of the molar value.
VALUE KIND: pIC50

Solved cases below.
| STRUCTURE AS SMILES | REPORTED VALUE |
| --- | --- |
| COc1c(C)c(C)c(C#N)c(Cl)c1C/C=C(\C)CCC(=O)O | 6.17 |
| COc1c(C)c(C)c(F)c(F)c1C/C=C(\C)CCC(=O)O | 5.86 |
| COc1c(C)c(C)cc(Cl)c1C/C=C(\C)CCC(=O)O | 4.73 |

(a) COc1c(C)c(C)c([N+](=O)[O-])c(Cl)c1C/C=C(\C)CCC(=O)O
(b) COc1c(C/C=C(\C)CCC(=O)O)cc(SC)c(C)c1C
Kindly identify the item with the lower pIC50 figure among these two: a and b Give the chosen item's label as your response.
b

###

# ASSAY TARGET: Inosine-5'-monophosphate dehydrogenase 2 (Homo sapiens, UniProt P12268)
# TEST DESCRIPTION: Compound was tested for inhibition of human recombinant type II Inosine Monophosphate Dehydrogenase. (tested to 100 and 10 uM conc)
VALUE KIND: IC50

Fill blank: measured IC50 of the compound C/C(=C\Cc1c(O)cc(C)c(C)c1C)CCC(=O)O is ____.
> 100 µM

###

# Organism: Homo sapiens
# TEST DESCRIPTION: Inhibition of human Lymphocyte proliferation. The IC50 values were determined by interpolation using the cubic spline determination at 10 uM
# Type: functional
pIC50: −log10 of the molar value.
VALUE KIND: pIC50

| COMPOUND | pIC50 |
| --- | --- |
| COc1c(C/C=C(\C)CCC(=O)O)cc(Br)c(C)c1C | < 5.00 |
| COc1c(C/C=C(\C)CCC(=O)O)cc(SC)c(C)c1C | < 5.00 |
| COc1c(C)c(C)c(Cl)c(C)c1C/C=C(\C)CCC(=O)O | < 5.00 |

Next compound, pIC50 to be filled in.
Endpoint output: pIC50 of COc1c(C)c(C)c(Br)c(Cl)c1C/C=C(\C)CCC(=O)O . Value?
< 5.00

###

The entries below come with measured pIC50 values attached.
# Organism: Homo sapiens
# TEST DESCRIPTION: Inhibition of human Lymphocyte proliferation. The IC50 values were determined by interpolation using cubic spline determination.
# Format: functional
By convention, pIC50 is the negative base-10 log of a molar concentration.

Sample answers from the record:
| STRUCTURE AS SMILES | VALUE KIND | REPORTED VALUE |
| --- | --- | --- |
| COc1c(C/C=C(\C)CCC(=O)O)cc([N+](=O)[O-])c(C)c1C | pIC50 | 5.02 |
| COc1c(C)c(C)c(C)c(O)c1C/C=C(\C)CCC(=O)O | pIC50 | 5.43 |
| C/C(=C\Cc1c(O)c2c(c(C)c1C1CC1)COC2=O)CCC(=O)O | pIC50 | 6.47 |

Param item = COc1c(C/C=C(\C)CCC(=O)O)c(O)c2c(c1OC)COC2=O ; retrieve measured pIC50.
6.89
